Origin of measurements: ChEMBL document CHEMBL5223107

# System: PC-3
# ASSAY PROCEDURE: Antiproliferative activity against human PC-3 cells assessed as cell growth inhibition incubated for 72 hrs by MTT assay
# Type: functional, cell-based
# TEST SETTINGS: PC-3, 72 h
MEASURED PROPERTY: pIC50
Here pIC50 is given on a logarithmic scale as minus log10 of the concentration in mol/L.

Quick one: pIC50 for CC1=CC2C(C(C)C)=C(O)C(=O)/C(=C\NCCS(=O)(=O)O)C2C(O)=C1c1c(C)cc2c(c1O)/C(=C/NCCS(=O)(=O)O)C(=O)C(O)=C2C(C)C (stereo unspecified) ?
5.50
